# Organism: Rattus norvegicus
# method-description: Open TG-GATES - Regimen: Single
# Type: toxicity, organism-based, Sprague-Dawley
# Design: regimen Single, gender Male, age 6 weeks
# run-parameters: in vivo, po, 1000 mg/kg, 24 h, tissue Blood, route gavage, dose level High
observable: APTT (s)
// return numeric value only (unit: s, not printed)

// recorded APTT for CNC(=C[N+](=O)[O-])NCCSCc1ccc(CN(C)C)o1 [RANITIDINE] : 20.1

# APTT of COC(=O)C1=C(C)NC(C)=C(C(=O)OC)C1c1ccccc1[N+](=O)[O-] [NIFEDIPINE] = 17.4

The reported APTT of the molecule O=C(OC[C@H]1O[C@@H](OC(=O)c2cc(O)c(O)c(OC(=O)c3cc(O)c(O)c(O)c3)c2)[C@H](OC(=O)c2cc(O)c(O)c(OC(=O)c3cc(O)c(O)c(O)c3)c2)[C@@H](OC(=O)c2cc(O)c(O)c(OC(=O)c3cc(O)c(O)c(O)c3)c2)[C@@H]1OC(=O)c1cc(O)c(O)c(OC(=O)c2cc(O)c(O)c(O)c2)c1)c1cc(O)c(O)c(OC(=O)c2cc(O)c(O)c(O)c2)c1 [TANNIC ACID] was 17.8

Lab note: measured APTT of CN/C(=N/CCSCc1nc[nH]c1C)NC#N [CIMETIDINE] was 19.3

Briefly, APTT measured for Cc1nnc2n1-c1ccc(Cl)cc1C(c1ccccc1Cl)=NC2 [TRIAZOLAM] : 17

---

Give measured Na for each item. Keep answers brief.
# Organism: Rattus norvegicus
# method-description: Open TG-GATES - Regimen: Daily Repeat
# Format: toxicity, organism-based, Sprague-Dawley
# Design: regimen Daily Repeat, gender Male, age 6 weeks
# run-parameters: in vivo, po, 1000 mg/kg, […], tissue Plasma, route gavage, dose level High, time 28 day
Expressed in meq/L, but write only the number.

// Na value for O=C(OC[C@H]1O[C@@H](OC(=O)c2cc(O)c(O)c(OC(=O)c3cc(O)c(O)c(O)c3)c2)[C@H](OC(=O)c2cc(O)c(O)c(OC(=O)c3cc(O)c(O)c(O)c3)c2)[C@@H](OC(=O)c2cc(O)c(O)c(OC(=O)c3cc(O)c(O)c(O)c3)c2)[C@@H]1OC(=O)c1cc(O)c(O)c(OC(=O)c2cc(O)c(O)c(O)c2)c1)c1cc(O)c(O)c(OC(=O)c2cc(O)c(O)c(O)c2)c1 : 139

Reported Na ( CN/C(=N/CCSCc1nc[nH]c1C)NC#N ) = 140

Na measured on CCOc1ccc(NC(C)=O)cc1 = 145.2

Documented Na of COC(=O)C1=C(C)NC(C)=C(C(=O)OC)C1c1ccccc1[N+](=O)[O-] : 144.4

Looking up Cc1nnc2n1-c1ccc(Cl)cc1C(c1ccccc1Cl)=NC2 , I found its Na recorded as 142.2

Query CNC(=C[N+](=O)[O-])NCCSCc1ccc(CN(C)C)o1 yields Na of 141.6

---

# Organism: Rattus norvegicus
# method-description: Open TG-GATES - Regimen: Daily Repeat
# Format: toxicity, organism-based, Sprague-Dawley
# Set-up: regimen Daily Repeat, gender Male, age 6 weeks
# run-parameters: in vivo, po, 100 mg/kg, […], tissue Blood, route gavage, dose level Low, time 28 day
observable: MCV (fL)
Write the value in fL as a bare number.

Input Cc1nnc2n1-c1ccc(Cl)cc1C(c1ccccc1Cl)=NC2 [TRIAZOLAM] . Output MCV: 56.6

Memo: CCOc1ccc(NC(C)=O)cc1 [PHENACETIN] , reported MCV: 55.3

Note to self: MCV recorded for CNC(=C[N+](=O)[O-])NCCSCc1ccc(CN(C)C)o1 [RANITIDINE] was 56.5

Value of measured MCV for the entry COC(=O)C1=C(C)NC(C)=C(C(=O)OC)C1c1ccccc1[N+](=O)[O-] [NIFEDIPINE] : 64

O=C(OC[C@H]1O[C@@H](OC(=O)c2cc(O)c(O)c(OC(=O)c3cc(O)c(O)c(O)c3)c2)[C@H](OC(=O)c2cc(O)c(O)c(OC(=O)c3cc(O)c(O)c(O)c3)c2)[C@@H](OC(=O)c2cc(O)c(O)c(OC(=O)c3cc(O)c(O)c(O)c3)c2)[C@@H]1OC(=O)c1cc(O)c(O)c(OC(=O)c2cc(O)c(O)c(O)c2)c1)c1cc(O)c(O)c(OC(=O)c2cc(O)c(O)c(O)c2)c1 [TANNIC ACID] yielded MCV of 59.5

// CN/C(=N/CCSCc1nc[nH]c1C)NC#N [CIMETIDINE] : MCV value = 55.8
